- System: PBMC from volunteers immunized with Ad-CA or Ad-C
- ASSAY DETAILS: IFN-γ ELISpot assay with cryopreserved PBMC of immunized volunteers
- Format: cell-based, human
- STATED CONDITIONS: Table 2; volunteer 01 (Ad-CA); individual 15mer at 10 μg/mL
VALUE TYPE: 15 mer sfc/m (sfc/m)
Numbers only; they are read as sfc/m.

SEQUENCE STRING: NELEMNYYGKQENWY [Cp2-C13, 15mer CSP peptide aa 49-63]
REPORTED: 116

SEQUENCE STRING: SSIGLIMVLSFLFLN [Cp9-C65, 15mer CSP peptide aa 383-397]
REPORTED: 46

SEQUENCE STRING: KCSSVFNVVNSSIGL [Cp9-C62, 15mer CSP peptide aa 373-387]
REPORTED: 116

SEQUENCE STRING: FLFVEALFQEYQCYG [Cp1-C4, 15mer CSP peptide aa 13-27]
REPORTED: 48

Please look at the following sequence next.
Consider the sequence shown here: TNLYNELEMNYYGKQ [Cp2-C12, 15mer CSP peptide aa 45-59] What is its recorded 15 mer sfc/m? 119
